Origin of values: patent US5837687A

System: NKA receptor (Mesocricetus auratus)
Construct: from tissue; host or cells: hamster respiratory tract (trachea) ring specimens
Run Description: Activity to constriction of hamster respiratory tracts caused by NKA (isolated tissue, tension)
Type: cell-based
Measurement Name: IC50 (nM)
Write down the numeric answer in nM and omit the unit.

# Molecule, Test Result
records = [
    ("CC(C)(C)OC(=O)N[C@@H](CCCNC(=O)OCc1ccccc1)C(=O)N[C@@H](Cc1c[nH]c2ccccc12)C(=O)NN(Cc1ccccc1)C(=O)NCCOCc1ccccc1 [Example 13 (1), Boc-Orn(Z)-Trp-AzPhe-NH (CH2)2 OCH2 Ph]", 80),
]

Exercise: Record request: IC50 value, item CC(C)(C)OC(=O)N[C@@H](CCCN)C(=O)N[C@@H](Cc1c[nH]c2ccccc12)C(=O)NN(Cc1ccccc1)C(=O)NCCOCc1ccccc1 [Example 13 (2), Boc-Orn-Trp-AzPhe-NH(CH2)2 OCH2 Ph]
Key: 78

---

System: NKA receptor (Mesocricetus auratus)
Construct: from tissue; host or cells: hamster respiratory tract (trachea) ring specimens
Run Description: Activity to constriction of hamster respiratory tracts caused by NKA (isolated tissue, tension)
Assay type: cell-based
Measurement Name: IC50

The cases that follow already have their IC50 on record.
# Compound Structure String, Measurement Name, Test Result
rows = [
    ("CSCC[C@H](NC(=O)OC(C)(C)C)C(=O)N[C@@H](Cc1c[nH]c2ccccc12)C(=O)NN(Cc1ccccc1)C(=O)NCCOCc1ccccc1", "IC50", "8.9 nM"),
    ("CC(C)(C)OC(=O)N[C@@H](Cc1c[nH]c2ccccc12)C(=O)NN(Cc1ccccc1)C(=O)NCCOCc1ccccc1", "IC50", "310 nM"),
    ("CC(C)(C)NC(=O)N[C@@H](CCC(N)=O)C(=O)N[C@@H](Cc1c[nH]c2ccccc12)C(=O)NN(Cc1ccc(F)cc1)C(=O)NCCOCc1ccccc1", "IC50", "0.42 nM"),
]

Exercise: Which IC50 is reported with NKA receptor (Mesocricetus auratus) for this entry: CC(C)(C)OC(=O)N[C@@H](CC(=O)OCc1ccccc1)C(=O)N[C@@H](CCC(N)=O)C(=O)N[C@H](Cc1c[nH]c2ccccc12)C(=O)NN(Cc1ccccc1)C(N)=O ?
Key: 990 nM

---

System: NKA receptor (Mesocricetus auratus)
Construct: from tissue; host or cells: hamster respiratory tract (trachea) ring specimens
Sequence (P51144 1-384): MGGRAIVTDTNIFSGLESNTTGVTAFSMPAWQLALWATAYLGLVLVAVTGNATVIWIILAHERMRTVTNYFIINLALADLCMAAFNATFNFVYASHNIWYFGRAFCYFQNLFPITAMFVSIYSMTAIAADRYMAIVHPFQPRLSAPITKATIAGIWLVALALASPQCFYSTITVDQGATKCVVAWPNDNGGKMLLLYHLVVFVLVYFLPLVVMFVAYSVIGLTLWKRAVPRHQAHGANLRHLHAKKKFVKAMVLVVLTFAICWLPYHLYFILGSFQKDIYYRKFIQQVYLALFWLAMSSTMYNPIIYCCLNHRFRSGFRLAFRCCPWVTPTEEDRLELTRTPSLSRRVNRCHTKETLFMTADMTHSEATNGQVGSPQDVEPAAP
Run Description: Activity to constriction of hamster respiratory tracts caused by NKA (isolated tissue, tension)
Format: cell-based
Particulars: mole concentration giving 50% control of tension caused by 1×10^-7 M NKA; compound maintained 5 minutes; hamster respiratory tract specimens; read-out: IC50
Measurement Name: IC50 (nM)
Write down the numeric answer in nM and omit the unit.

Exercise: Record request: IC50 value, item Ac-LDQWFG-NH2 [Reference example 13, Ac-Leu-Asp-Gln-Trp-Phe-Gly-NH2, reference compound]
Key: 22
